Test system: Uromyces appendiculatus
Assay: In vivo preventive test on Uromyces appendiculatus (bean rust)
Conditions: dose 500 ppm; bean plants sprayed 24 h before contamination; grading 11 days after contamination
Let's look at some compounds and their measured Eff. %.

- Compound: "CC1c2cccc(NC(=O)c3c(C(F)F)nn(C)c3F)c2CC12CCCC2 (stereo not shown)"
  Eff. % / %: 100
- Compound: "CC(C)C1Cc2cccc(NC(=O)c3c(C(F)F)nn(C)c3Cl)c2C1C (stereo not shown) [Example 47]"
  Eff. % / %: 86
- Compound: "Cn1nc(C(F)F)c(C(=O)Nc2cccc3c2CCC3C(C)(C)C)c1Cl (stereo not shown)"
  Eff. % / %: 100
- Compound: "CCON=C1CC(C)c2c(NC(=O)c3c(C(F)F)nn(C)c3F)cccc21 (stereo not shown)"
  Eff. % / %: 95
- Compound: "CC1CC(C(C)C)c2cccc(NC(=O)c3c(C(F)F)nn(C)c3F)c21 (stereo not shown)"
  Eff. % / %: 100
- Compound: "Cn1nc(C(F)F)c(C(=O)Nc2cccc3c2CC(C)(C)C3)c1F"
  Eff. % / %: 100
- Compound: "CC(C)C1Cc2cccc(NC(=O)c3c(C(F)F)nn(C)c3Cl)c2C1C (stereo not shown) [Example 56]"
  Eff. % / %: 86
- Compound: "Cn1nc(C(F)F)c(C(=O)Nc2cccc3c2CC2(CCCC2)C3)c1Cl"
  Eff. % / %: 100
- Compound: "Cn1nc(C(F)F)c(C(=O)Nc2cccc3c2CCC32CC2)c1F"
  Eff. % / %: 100
- Compound: "CC(C)C1Cc2c(NC(=O)c3c(C(F)F)nn(C)c3F)cccc2C1(C)C (stereo not shown)"
  Eff. % / %: 100

Where do these numbers come from? They come from patent US9375005B2.
